Taken from the supplement of paper PMC12042874.

# method-description: amyloid nucleation score (Sup35N fusion, yeast selection) (log enrichment); library NNK3; higher = more nucleation; inactive = no reads after selection;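 further: zero at mode of non-aggregating sequences after 7 days selection at 30°C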
assay-endpoint: amyloid nucleation score

Worked set:
LVILMSSHIEFLGTYFNEKL: inactive
RRWCLVAIIPIELNAGTEQH: inactive
YLDFVFGLRTRDNYLWVRPT: inactive
HKMRRSLQFNEMGLFSPKVY: inactive
YRFYSNNPTRCS: inactive
NTDFYVVVDRIMFRLLHGFK: inactive
MAEWENRLARYSGICGSSLP: inactive
KYYFRGWKTEPVTWFGCQAM: 0.488
TMAYGAPLPHSTSYYITIMS: inactive
KYGWVLFYGCYYCGHGWTNL: inactive

# substance PLGVRQQWEGSQVDPCGLRA ; its amyloid nucleation score = inactive

Lookup result for NVHMMC ; measured amyloid nucleation score: inactive

====

# method-description: amyloid nucleation score (Sup35N fusion, yeast selection) (log enrichment); library NNK3; higher = more nucleation; inactive = no reads after selection
assay-endpoint: amyloid nucleation score

Some solved cases for reference:
RRSLHCIDCSRFPLIFHCTV: inactive
RFSWNENVGVDGQHLPEVER: inactive
TYRRFMDNNGVIILILPNER: 1.74
GRYVCRL: -0.459
MWSVPLKSQAILYTFDCVSL: 0.174
ADTTCHFACKPKLDFLRKTT: inactive
AMNNLLFTLYVF: inactive
THTSAKDHRVDWLSQL: inactive

Per the record, VTGLCSDTHRVSYEFRLPRK has amyloid nucleation score of inactive

====

# method-description: amyloid nucleation score (Sup35N fusion, yeast selection) (log enrichment); library NNK2; higher = more nucleation; inactive = no reads after selection
assay-endpoint: amyloid nucleation score

TSISYLRVYTRSFMRSLSGL: inactive
MIGDYTSFCMGSGF: inactive
GGLWTGLVSASKEFSK: inactive
NDSCELLCESITYTAWFSGQ: 3.22
GKGDVGESRADCLAYSRRMS: 0.868
VFRDLSIERFIRSYVNCDRG: inactive
YWACDTFSILVLGNTVDSLD: inactive

# next sequence below
Given item GKMGYFEWGVLDYIVRLSGT , the value recorded as its amyloid nucleation score is 0.851

====

# method-description: amyloid nucleation score (Sup35N fusion, yeast selection) (log enrichment); library NNK1; higher = more nucleation; inactive = no reads after selection
Quick rule: amyloid nucleation score of at least -0.05 means y, below that means n.

Use the examples below as a reference point.
VERLAT: n
ISCKWYNHISSRLNFMWHAK: y

Given FHMENALISLGCSSGLRQMA , state whether its amyloid nucleation score is at least -0.05.
y

Threshold query (amyloid nucleation score >= -0.05) on TPLWKSII
y

====

# method-description: amyloid nucleation score (Sup35N fusion, yeast selection) (log enrichment); library NNK3; higher = more nucleation; inactive = no reads after selection
assay-endpoint: amyloid nucleation score

Some solved entries appear below for comparison.
VKNIWIDVTMGDQLFIPNFY: 2.36
NENYVIAGC: inactive
GCGRCFL: inactive
TNDLYEFVPRAVILTSICLL: inactive
KYYTSRNRWRYMV: -0.291
LWWISWRRGSQSMVVSG: inactive

// amyloid nucleation score lookup, substance = ASDNWESRPSRSSDKSGVIG , result: inactive

// recorded amyloid nucleation score for SSPKMMCSFFDMSTLPFVYD : inactive

Measured amyloid nucleation score, IVMKALNAFWTRTMLMFHHM : inactive

SCILHYSDYATWLGRYVKVI has a reported amyloid nucleation score of inactive

Sure, the documented amyloid nucleation score for DEMPRVSMRVNNMPGCDNDE is inactive

Looking up DCFDFIEETGTNKAFRVWGI , I found its amyloid nucleation score recorded as 0.283

amyloid nucleation score measured on LWIDLWFILYWPGSIDCGEC = -0.288

Data point: YLDSSSS ; amyloid nucleation score = inactive

The substance listed as HNASKRMDICKASSVYKWRI shows amyloid nucleation score equal to inactive

Quick note, amyloid nucleation score for RKCLMMCDYCITLNM landed at 2.29
